// pEC50 lookup, one value per entry
- Tested on: T1, mouse tissue factor pathway inhibitor (TFPI) (mouse, UniProt O54819 29-289, limits assumed)
- T1 construct: Bought protein; also called mouse TFPI; mTFPI
- T1 sequence (looked up): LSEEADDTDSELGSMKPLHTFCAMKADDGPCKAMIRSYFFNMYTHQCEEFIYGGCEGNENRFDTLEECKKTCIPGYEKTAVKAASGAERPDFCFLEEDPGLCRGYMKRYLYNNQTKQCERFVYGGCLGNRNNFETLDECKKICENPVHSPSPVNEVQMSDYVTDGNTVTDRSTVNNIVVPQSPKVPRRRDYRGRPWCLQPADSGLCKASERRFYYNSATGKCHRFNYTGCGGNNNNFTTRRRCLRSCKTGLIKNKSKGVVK
- Protocol summary: ELISA, Fab on coated TFPI
pEC50: −log10 of the molar value.

# Binder, pEC50
data = [
    ("TP-2G6 Fab (Fab, V domains shown, Human Fab from HuCal Gold, expressed in E. coli TG1) VH: QVQLQQSGPGLVKPSQTLSLTCAISGDSVSSSSAAWSWIRQSPGRGLEWLGIIYYRSKWYNDYAVSVKSRITINPDTSKNQFSLQLNSVTPEDTAVYYCARHSMVGFDVWGQGTLVTVSS VL: DIVLTQSPATLSLSPGERATLSCRASQYVTSSYLAWYQQKPGQAPRLLIYGSSRATGVPARFSGSGSGTDFTLTISSLEPEDFATYYCQQYSSSPITFGQGTKVEIKR", 8.29),
    ("TP-2A2 Fab (Fab, V domains shown, Human Fab from HuCal Gold, expressed in E. coli TG1) VH: QVQLVESGGGLVQPGGSLRLSCAASGFTFSNNAMNWVRQAPGKGLEWVSTISYDGSNTYYADSVKGRFTISRDNSKNTLYLQMNSLRAEDTAVYYCARQAGGWTYSYTDVWGQGTLVTVSS VL: DIELTQPPSVSVAPGQTARISCSGDNIRTYYVHWYQQKPGQAPVVVIYGDSKRPSGIPERFSGSNSGNTATLTISGTQAEDEADYYCQSYDSEADSEVFGGGTKLTVLG", 5.98),
    ("TP-4B7 Fab (Fab, V domains shown, Human Fab from HuCal Gold, expressed in E. coli TG1) VH: QVQLQQSGPGLVKPSQTLSLTCAISGDSVSSNSAAWSWIRQSPGRGLEWLGIIYKRSKWYNDYAVSVKSRITINPDTSKNQFSLQLNSVTPEDTAVYYCARWHSDKHWGFDYWGQGTLVTVSS VL: DIVMTQSPLSLPVTPGEPASISCRSSQSLVFSDGNTYLNWYLQKPGQSPQLLIYKGSNRASGVPDRFSGSGSGTDFTLKISRVEAEDVGVYYCQQYDSYPLTFGQGTKVEIKR", 8.58),
    ("TP-2E5 Fab (Fab, V domains shown, Human Fab from HuCal Gold, expressed in E. coli TG1) VH: QVQLQQSGPGLVKPSQTLSLTCAISGDSVSSNSAAWSWIRQSPGRGLEWLGMIFYRSKWNNDYAVSVKSRITINPDTSKNQFSLQLNSVTPEDTAVYYCARVNANGYYAYVDLWGQGTLVTVSS VL: DIQMTQSPSSLSASVGDRVTITCRASQPIYNSLSWYQQKPGKAPKLLIYGVSNLQSGVPSRFSGSGSGTDFTLTISSLQPEDFAVYYCLQVDNLPITFGQGTKVEIKR", 6.69),
    ("TP-3B4 Fab (Fab, V domains shown, Human Fab from HuCal Gold, expressed in E. coli TG1) VH: QVQLQQSGPGLVKPSQTLSLTCAISGDSVSSNGAAWGWIRQSPGRGLEWLGHIYYRSKWYNSYAVSVKSRITINPDTSKNQFSLQLNSVTPEDTAVYYCARWGGIHDGDIYFDYWGQGTLVTVSS VL: DIQMTQSPSSLSASVGDRVTITCRASQNISNYLNWYQQKPGKAPKLLIYGTSSLQSGVPSRFSGSGSGTDFTLTISSLQPEDFAVYYCQQYGNNPTTFGQGTKVEIKR", 7.46),
]
